inhibition at 10 µM overview
Experimental Target: human recombinant NRH:quinone oxidoreductase (NQO2) (Homo sapiens, UniProt P16083)
Construct: purchased Sigma Q0380
Sequence (P16083 whole entry): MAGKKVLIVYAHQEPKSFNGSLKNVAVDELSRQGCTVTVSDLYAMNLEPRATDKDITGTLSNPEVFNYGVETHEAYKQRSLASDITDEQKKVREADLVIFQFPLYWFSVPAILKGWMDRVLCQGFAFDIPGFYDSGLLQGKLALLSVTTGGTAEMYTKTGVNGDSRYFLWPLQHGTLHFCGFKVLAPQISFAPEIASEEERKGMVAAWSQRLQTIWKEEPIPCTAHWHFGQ
Measurement Description: biochemical
Experimental Parameters: read-out: NQO2 Inhibition, %
Note: unit % is implicit; provide only the numeric part.

{"columns": ["Compound", "Experimental Target", "Unit Text", "inhibition at 10 µM"],
 "data": [
  ["COc1ccc(C(=O)CC2(O)C(=O)Nc3ccc(Br)cc32)cc1 (stereo not drawn)", "human recombinant NRH:quinone oxidoreductase (NQO2) (Homo sapiens, UniProt P16083)", "%", 78.8],
  ["O=C1Nc2ccc(Br)cc2C1=Cc1ccncc1", "human recombinant NRH:quinone oxidoreductase (NQO2) (Homo sapiens, UniProt P16083)", "%", 41.9],
  ["O=C1Nc2ccc(NC(=O)c3ccccc3)cc2C1=Cc1ccc(O)cc1", "human recombinant NRH:quinone oxidoreductase (NQO2) (Homo sapiens, UniProt P16083)", "%", 62.9],
  ["O=C1Nc2ccc(NC(=O)c3ccccc3)cc2C1=Cc1ccccn1", "human recombinant NRH:quinone oxidoreductase (NQO2) (Homo sapiens, UniProt P16083)", "%", 43.1],
  ["COC(=O)Nc1ccc2c(c1)C(=Cc1ccc([N+](=O)[O-])cc1)C(=O)N2", "human recombinant NRH:quinone oxidoreductase (NQO2) (Homo sapiens, UniProt P16083)", "%", 74]
]}

q: What value of measured inhibition at 10 µM is listed for O=C1Nc2ccc(Br)cc2C1=Cc1ccc(Br)cc1 (mixture of isomers) ?
a: 68.6

---

log10 of CC50 at 72 h overview
Measurement Description: Antiproliferative assay (MTT colorimetric test, 72 h)
Type: cell-based
Experimental Parameters: human, n.a. = not active, read-out: A549, CC50
Plainly stated, the numbers are log10 of CC50 at 72 h given in µM.

Before answering, review these 4 worked examples.
{"columns": ["Query Smiles", "log10 of CC50 at 72 h"],
 "data": [
  ["O=C1Nc2ccc(Br)cc2C1=Cc1ccncc1", 1.35],
  ["O=C1Nc2ccc([N+](=O)[O-])cc2C1=Cc1cccnc1", 2.63],
  ["Cc1n[nH]cc1C=C1C(=O)Nc2ccccc21", 2.34],
  ["O=C1Nc2ccc(Br)cc2C1=Cc1ccco1", 2.65]
]}

Then there is this molecule:
q: What value of measured log10 of CC50 at 72 h is listed for "O=C1Nc2ccc(NC(=O)c3ccco3)cc2C1=Cc1ccc(O)cc1" ?
a: 2.16

---

Experimental Target: human recombinant NRH:quinone oxidoreductase (NQO2) (Homo sapiens)
Construct: purchased Sigma Q0380
Measurement Description: biochemical
Measured Parameter: pIC50
Kindly note that pIC50 refers to -log10 of the concentration in mol/L and answer with the value alone.

q: human recombinant NRH:quinone oxidoreductase (NQO2) (Homo sapiens) / pIC50 / CCOC(=O)c1[nH]ncc1C=C1C(=O)Nc2ccc([N+](=O)[O-])cc21 [Compound 40] : value?
a: 5.73

q: Query CC(=O)Nc1ccc2c(c1)C(=Cc1ccccn1)C(=O)N2 [Compound 5] next
a: 4.39

q: Query Cc1n[nH]cc1C=C1C(=O)Nc2ccccc21 [Compound 43] next
a: 5.12

q: Query CN1C(=O)C(=Cc2ccccn2)c2ccccc21 [Compound 2] next
a: 4.78

---

Measurement Description: Antiproliferative assay (MTT colorimetric test, 72 h)
Assay type: cell-based
Experimental Parameters: human, n.a. = not active, read-out: A549, CC50
For each record, check the reported CC50 at 72 h: if it is below 100 µM write 1, else write 0.

{"columns": ["Molecule", "Cat"],
 "data": [
  ["O=C1Nc2ccccc2C1=Cc1cccnc1", 1]
]}

q: For this molecule, is CC50 at 72 h lower than 100 µM? Cc1ccc(C(=O)CC2(O)C(=O)Nc3ccccc32)cc1 (centres unmarked)
a: 0

---

Experimental Target: human recombinant NRH:quinone oxidoreductase (NQO2) (Homo sapiens)
Construct: purchased Sigma Q0380
Measurement Description: biochemical
Measured Parameter: IC50

{"columns": ["Compound", "Experimental Target", "IC50"],
 "data": [
  ["O=C1Nc2ccccc2C1=Cc1ccc([N+](=O)[O-])cc1", "human recombinant NRH:quinone oxidoreductase (NQO2) (Homo sapiens)", "> 50 µM"],
  ["O=C1Nc2ccccc2C1=Cc1ccc(O)cc1 [Compound 14, 3-(4-hydroxybenzylidene)-2-oxindole]", "human recombinant NRH:quinone oxidoreductase (NQO2) (Homo sapiens)", "> 50 µM"],
  ["O=C1Nc2ccc(NC(=O)c3ccccc3)cc2C1=Cc1ccc([N+](=O)[O-])cc1 (mixture of isomers)", "human recombinant NRH:quinone oxidoreductase (NQO2) (Homo sapiens)", "> 50 µM"],
  ["O=C1Nc2ccc([N+](=O)[O-])cc2C1=Cc1cccnc1", "human recombinant NRH:quinone oxidoreductase (NQO2) (Homo sapiens)", "> 50 µM"],
  ["O=C1Nc2ccc(Br)cc2C1=Cc1cccs1", "human recombinant NRH:quinone oxidoreductase (NQO2) (Homo sapiens)", "> 50 µM"]
]}

q: What value of measured IC50 is listed for "O=C1Nc2ccc(Br)cc2C1=Cc1ccco1" ?
a: > 50 µM

q: Query "CC(=O)Nc1ccc2c(c1)C(=Cc1cccc(O)c1)C(=O)N2" next
a: 0.64 µM

---

Measurement Description: Antiproliferative assay (MTT colorimetric test, 72 h)
Type: cell-based
Experimental Parameters: human, n.a. = not active, read-out: A549, CC50
Measured Parameter: CC50 at 72 h
Output should be the measured figure followed by the unit it is expressed in.

q: What value of measured CC50 at 72 h is listed for O=C1Nc2ccc(Br)cc2C1=Cc1cccs1 [Compound 38] ?
a: 427 µM

---

pIC50 overview
Experimental Target: human recombinant NRH:quinone oxidoreductase (NQO2) (Homo sapiens)
Construct: purchased Sigma Q0380
Measurement Description: biochemical
Experimental Parameters: recombinant human NQO2, 100 μM menadione, 100 μM BNAH; read-out: NQO2 IC50 ± SEM
Kindly note that pIC50 refers to -log10 of the concentration in mol/L and answer with the value alone.

Before answering, review these 5 worked examples.
{"columns": ["Compound", "pIC50"],
 "data": [
  ["CN1C(=O)C(=Cc2ccc(O)cc2)c2ccccc21", 6.21],
  ["O=c1c(O)c(-c2ccc(O)c(O)c2)oc2cc(O)cc(O)c12 [Quercetin, reference compound]", 7.10],
  ["COC(=O)Nc1ccc2c(c1)C(=Cc1ccc(O)cc1)C(=O)N2", 6.36],
  ["O=C1Nc2ccc(NC(=O)c3ccco3)cc2C1=Cc1ccc(O)cc1", 6.43],
  ["COc1cc(C=C2C(=O)Nc3ccccc32)cc(OC)c1OC", 5.80]
]}

q: What value of measured pIC50 is listed for "CC(=O)Nc1ccc2c(c1)C(=Cc1ccc(O)cc1)C(=O)N2" ?
a: 6.00

q: Query "COc1cc(C=C2C(=O)Nc3ccc(NC(C)=O)cc32)cc(OC)c1OC" next
a: 6.43

---

Experimental Target: human recombinant NRH:quinone oxidoreductase (NQO2) (Homo sapiens, UniProt P16083)
Construct: purchased Sigma Q0380
Measurement Description: biochemical
Experimental Parameters: read-out: NQO2 Inhibition, %
inhibition at 10 µM overview
Note: unit % is implicit; provide only the numeric part.

{"columns": ["Compound", "Experimental Target", "Unit Text", "inhibition at 10 µM"],
 "data": [
  ["O=C1Nc2ccccc2C1=Cc1cccs1 [Compound 37, 3-(2-thienylmethylidene)-2-oxindole]", "human recombinant NRH:quinone oxidoreductase (NQO2) (Homo sapiens, UniProt P16083)", "%", 38.1]
]}

q: What value of measured inhibition at 10 µM is listed for COc1cc(C=C2C(=O)Nc3ccc(NC(=O)c4ccccc4)cc32)cc(OC)c1O [Compound 26] ?
a: 40.5

q: Query O=C1Nc2ccc(Br)cc2C1=Cc1cccnc1 [Compound 8] next
a: 44.2

q: Query O=C1Nc2ccccc2C1=Cc1ccco1 [Compound 34, 3-(2-furylmethylidene)-2-oxindole] next
a: 59.9

q: Query O=C1Nc2ccc([N+](=O)[O-])cc2C1=Cc1ccco1 [Compound 36] next
a: 59.5

q: Query Cc1n[nH]c(C)c1C=C1C(=O)Nc2ccccc21 [Compound 42] next
a: 54.4

q: Query Cc1nn(-c2ccccc2)c(C)c1C=C1C(=O)Nc2ccccc21 [Compound 44] next
a: 43.6

q: Query O=C1Nc2ccccc2C1=Cc1cccnc1 [Compound 7, 3-(3-pyridinylmethylidene)-2-oxindole] next
a: 59.2

q: Query COc1ccc(C=C2C(=O)Nc3ccccc32)cc1 [Compound 20] next
a: 40.8

---

CC50 at 72 h overview
Measurement Description: Antiproliferative assay (MTT colorimetric test, 72 h)
Assay type: cell-based
Experimental Parameters: human, n.a. = not active, read-out: A549, CC50
Note: unit µM is implicit; provide only the numeric part.

Before answering, review these 2 worked examples.
{"columns": ["Compound", "Unit Text", "CC50 at 72 h"],
 "data": [
  ["COc1cc(C=C2C(=O)Nc3ccc(NC(C)=O)cc32)cc(OC)c1OC [Compound 24]", "µM", 149],
  ["CC(=O)Nc1ccc2c(c1)C(=Cc1ccccn1)C(=O)N2 [Compound 5]", "µM", 136]
]}

Then there is this compound:
q: What value of measured CC50 at 72 h is listed for O=C1Nc2ccccc2C1=Cc1ccncc1 [Compound 10, 3-(4-pyridinylmethylidene)-2-oxindole] ?
a: 80.3
